Below is a list of entries, each paired with its recorded IC50 value.
target: orexin-1 (Homo sapiens (Human), UniProt O43613); experiment: Intracellular calcium measurement (FLIPR), CHO cells expressing human orexin-1 receptor, 3 nM orexin-A; format: cell-based; details: CHO cells expressing human orexin-1 receptor, FLIPR, 3 nM orexin-A; geometric mean if determined several times; read-out: IC50 OX1
Sequence (O43613 whole entry): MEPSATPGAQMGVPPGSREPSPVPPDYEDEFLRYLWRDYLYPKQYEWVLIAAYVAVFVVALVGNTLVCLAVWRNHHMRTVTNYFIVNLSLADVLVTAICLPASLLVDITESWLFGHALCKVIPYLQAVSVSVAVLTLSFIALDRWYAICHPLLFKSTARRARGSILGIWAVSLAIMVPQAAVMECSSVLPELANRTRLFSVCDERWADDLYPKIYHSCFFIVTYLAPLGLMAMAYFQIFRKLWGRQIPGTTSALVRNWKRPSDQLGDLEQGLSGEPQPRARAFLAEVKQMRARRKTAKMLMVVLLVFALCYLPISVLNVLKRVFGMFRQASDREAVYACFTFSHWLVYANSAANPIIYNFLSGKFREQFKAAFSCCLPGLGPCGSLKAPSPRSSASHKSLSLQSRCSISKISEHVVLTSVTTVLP
Note: unit nM is implicit; provide only the numeric part.

Solved entries:
COc1c(F)cccc1-c1noc([C@@H]2CCCN2C(=O)c2ccc(C)cc2-n2nccn2)n1 71
COc1ccc(-c2nnc([C@@H]3CCCN3C(=O)c3cc(C)ccc3-n3nccn3)o2)cc1 17000

Lookup: IC50 / orexin-1 (Homo sapiens (Human), UniProt O43613) / "COc1cc(C(=O)N2CCC[C@H]2c2nc(-c3ccccc3OC(F)(F)F)no2)c(-c2ncccn2)cc1C"
90

====

target: orexin-1 (Homo sapiens (Human), UniProt O43613); test: Intracellular calcium measurement (FLIPR), CHO cells expressing human orexin-1 receptor, 3 nM orexin-A; assay type: cell-based; details: CHO cells expressing human orexin-1 receptor, FLIPR, 3 nM orexin-A; geometric mean if determined several times; read-out: IC50 OX1
observation.type: IC50 (nM)
Note: unit nM is implicit; provide only the numeric part.

COc1ccc(C)cc1-c1nc([C@@H]2CCCN2C(=O)c2cc(Cl)ccc2-n2nccn2)no1 271

Which IC50 is reported for this molecule? "Cc1onc(-c2ccccc2Cl)c1C(=O)N1CCC[C@H]1c1nc(-c2ccccc2OC(F)(F)F)no1"
782

Which IC50 is reported for this molecule? "Cc1cc(CC(C)C)nc(-c2noc([C@@H]3CCCN3C(=O)c3cc(C)ccc3-n3nccn3)n2)c1"
1250

Which IC50 is reported for this molecule? "C[C@@]1(c2nnc(-c3ccccc3OC(F)(F)F)[nH]2)CCCN1C(=O)c1cc(Cl)ccc1-n1nccn1"
25

Which IC50 is reported for this molecule? "Cc1cccc(-c2oc(C)nc2C(=O)N2CCC[C@H]2c2nc(-c3cccc(Cl)c3C)no2)c1"
104

Which IC50 is reported for this molecule? "Cc1c(Cl)cccc1-c1noc([C@@H]2CCCN2C(=O)c2cc(C#N)ccc2-n2nccn2)n1"
762

====

Below is a list of entries, each paired with its recorded IC50 value.
biological target: orexin-1 (Homo sapiens (Human), UniProt O43613); assay: Intracellular calcium measurement (FLIPR), CHO cells expressing human orexin-1 receptor, 3 nM orexin-A; format: cell-based; details: CHO cells expressing human orexin-1 receptor, FLIPR, 3 nM orexin-A; geometric mean if determined several times; read-out: IC50 OX1
Note: unit nM is implicit; provide only the numeric part.

Solved entries:
molecule	study.target	readout.units	IC50
O=C(c1cc(F)ccc1-c1ccn[nH]1)N1CCC[C@H]1c1nc(-c2ccccc2OC(F)(F)F)no1 [compound 167]	orexin-1 (Homo sapiens (Human), UniProt O43613)	nM	114
CCOc1ncccc1-c1nnc([C@@H]2CCCN2C(=O)c2ccc(C)cc2-n2nccn2)[nH]1 [compound 482]	orexin-1 (Homo sapiens (Human), UniProt O43613)	nM	68

# input for lookup
Which IC50 is reported for this molecule? COCc1ccccc1-c1noc([C@@H]2CCCN2C(=O)c2cc(C)ccc2-n2nccn2)n1 [compound 44]
110

====

target: human orexin-2 receptor (Homo sapiens (Human)); test: Intracellular calcium measurement (FLIPR), CHO cells expressing human orexin-2 receptor, 3 nM orexin-A; assay type: cell-based; conditions: CHO cells expressing human orexin-2 receptor, FLIPR, 3 nM orexin-A; geometric mean if determined several times; read-out: IC50 OX2
Binned IC50; ranges: LOW (below 5 nM), MID (5 nM to below 20 nM), HIGH (20 nM or more)

Some solved entries appear below for comparison.
Cc1c(F)cccc1-c1noc([C@@H]2CCCN2C(=O)c2ccccc2-n2nccn2)n1 MID
Cc1cc(C(=O)N2CCC[C@H]2c2nc(-c3cccc(F)c3C)no2)c(-n2nccn2)cc1C LOW
Cc1ccc(-n2nccn2)c(C(=O)N2CCC[C@H]2c2nc(-c3ccccc3Cl)no2)c1 MID
COc1cc(C(=O)N2CCC[C@H]2c2nc(-c3cccc(F)c3C)no2)c(-n2nccn2)cc1Cl LOW

Below: the item to evaluate.
Hi there! Could you help me figure out the category for "Cc1ccc(-n2nccn2)c(C(=O)N2CCC[C@H]2c2nc(-c3ccccc3OC(F)(F)F)no2)c1F" please?
MID

====

Below is a list of entries, each paired with its recorded IC50 value.
molecular target: orexin-1 (Homo sapiens (Human), UniProt O43613); assay: Intracellular calcium measurement (FLIPR), CHO cells expressing human orexin-1 receptor, 3 nM orexin-A; type: cell-based; conditions: CHO cells expressing human orexin-1 receptor, FLIPR, 3 nM orexin-A; geometric mean if determined several times; read-out: IC50 OX1
Note: unit µM is implicit; provide only the numeric part.

Solved entries:
Cc1c(Cl)cccc1-c1noc([C@@H]2CCCN2C(=O)c2ccccc2-c2ccccc2)n1 0.233
Cc1ccccc1-c1noc([C@@H]2CCCN2C(=O)c2cccs2)n1 6.27

# input for lookup
Which IC50 is reported for this compound? "O=C(c1cccs1)N1CCC[C@H]1c1nc(-c2cccc(Cl)c2)no1"
4.26

====

biological target: human orexin-2 receptor (Homo sapiens (Human), UniProt O43614); assay: Intracellular calcium measurement (FLIPR), CHO cells expressing human orexin-2 receptor, 3 nM orexin-A; format: cell-based; conditions: CHO cells expressing human orexin-2 receptor, FLIPR, 3 nM orexin-A; geometric mean if determined several times; read-out: IC50 OX2
Sequence (O43614 whole entry): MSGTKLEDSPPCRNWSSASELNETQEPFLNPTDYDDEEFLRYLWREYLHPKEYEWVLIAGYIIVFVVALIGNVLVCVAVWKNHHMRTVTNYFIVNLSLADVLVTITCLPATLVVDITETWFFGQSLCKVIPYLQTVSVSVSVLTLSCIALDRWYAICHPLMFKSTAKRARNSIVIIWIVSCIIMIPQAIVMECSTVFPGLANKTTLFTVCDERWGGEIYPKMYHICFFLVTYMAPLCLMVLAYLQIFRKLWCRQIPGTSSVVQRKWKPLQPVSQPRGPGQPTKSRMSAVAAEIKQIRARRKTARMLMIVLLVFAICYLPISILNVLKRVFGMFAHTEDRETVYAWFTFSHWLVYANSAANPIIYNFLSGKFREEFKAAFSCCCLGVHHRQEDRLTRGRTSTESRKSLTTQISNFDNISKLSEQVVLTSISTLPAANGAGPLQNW
Below is a list of entries, each paired with its recorded IC50 value.
Note: unit µM is implicit; provide only the numeric part.

molecule	observation.type	assay.value
COc1ccc(-n2nccn2)c(C(=O)N2CCC[C@H]2c2nc(-c3ccccc3OC(F)(F)F)no2)c1 [compound 151]	IC50	0.027
COc1cc(C(=O)N2CCC[C@H]2c2nc(-c3ccccc3C(F)(F)F)no2)c(-n2nccn2)cc1C [compound 182]	IC50	0.029
COc1cc(C(=O)N2CCC[C@H]2c2noc(-c3cccc(OC)c3C)n2)c(-n2nccn2)cc1Cl [compound 355]	IC50	0.008

# input for lookup
Which IC50 is reported for this molecule? Cc1ccc(-n2nccn2)c(C(=O)N2CCC[C@H]2c2nc(-c3ccc(C)c(C)c3)no2)c1 [compound 80]
0.016

====

target: orexin-1 (Homo sapiens (Human)); experiment: Intracellular calcium measurement (FLIPR), CHO cells expressing human orexin-1 receptor, 3 nM orexin-A; assay type: cell-based; settings: CHO cells expressing human orexin-1 receptor, FLIPR, 3 nM orexin-A; geometric mean if determined several times; read-out: IC50 OX1
observation.type: IC50
In your response, put the unit directly after the numeric value.

Solved entries:
Cc1ccc(-n2nccn2)c(C(=O)N2CCC[C@H]2c2nc(-c3ncccc3C)no2)c1 3470 nM
O=C(c1ncsc1-c1cccc(Cl)c1)N1CCC[C@H]1c1nc(-c2ccccc2OC(F)(F)F)no1 123 nM

Which IC50 is reported for this compound? "Cc1c(Cl)cccc1-c1noc([C@@H]2CCCN2C(=O)c2cccc(F)c2-n2cccn2)n1"
1200 nM

Which IC50 is reported for this compound? "Cc1ccc(-n2nccn2)c(C(=O)N2CCC[C@H]2c2nc(-c3cccnc3OC3CCCC3)no2)c1"
89 nM

Which IC50 is reported for this compound? "Cc1cc(C(=O)N2CCC[C@@]2(C)c2nnc(-c3ccccc3OC(F)(F)F)[nH]2)c(-n2nccn2)cc1C"
4 nM

Which IC50 is reported for this compound? "O=C(c1ccccc1-n1nccn1)N1CCC[C@H]1c1nnc(-c2ccccc2OC(F)(F)F)[nH]1"
156 nM

====

target: orexin-1 (Homo sapiens (Human)); test: Intracellular calcium measurement (FLIPR), CHO cells expressing human orexin-1 receptor, 3 nM orexin-A; type: cell-based; conditions: CHO cells expressing human orexin-1 receptor, FLIPR, 3 nM orexin-A; geometric mean if determined several times; read-out: IC50 OX1
Lab note: compare IC50 with 20 nM, writing fulfilled if less and not fulfilled if equal or more.

compound	discrete.label
O=C(c1ccoc1)N1CCC[C@H]1c1nc(-c2ccccc2)no1 [Ref 4]	not fulfilled
COc1ccc(C)cc1-c1nc([C@@H]2CCCN2C(=O)c2cc(C)c(C)cc2-n2nccn2)no1 [compound 384]	not fulfilled
Cc1ccc(-n2nccn2)c(C(=O)N2CCC[C@H]2c2cn(-c3ccccc3)nn2)c1 [Example 536]	not fulfilled
CCOc1ccccc1-c1nc([C@@H]2CCCN2C(=O)c2cc(OC)c(C)cc2-n2nccn2)no1 [compound 309]	fulfilled
Cc1ccc(-n2nccn2)c(C(=O)N2CCC[C@H]2c2cc(-c3ccccc3OC(F)(F)F)on2)c1 [compound 434]	not fulfilled

Below 20 nM on IC50? Entry COc1cc(OC)cc(-c2noc([C@@H]3CCCN3C(=O)c3cc(C)ccc3-n3nccn3)n2)c1 [compound 47]
not fulfilled
